B1: TPR t1 (parent)
chain: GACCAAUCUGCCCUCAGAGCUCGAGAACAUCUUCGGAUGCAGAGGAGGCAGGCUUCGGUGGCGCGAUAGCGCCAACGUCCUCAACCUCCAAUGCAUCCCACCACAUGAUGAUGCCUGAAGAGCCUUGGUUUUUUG

Variants of: B1
Test: polymerase ribozyme fitness, log enrichment relative to wild type (log ratio); higher = more active; in vitro selection for triplet polymerase activity
QUANTITY: polymerase ribozyme fitness (log ratio)
The response must contain the number and no unit.

Asked: Which polymerase ribozyme fitness (log ratio) reading was recorded for the variant GACCGAUCUGCCCUCAGAGCUCGAGAACAUCUUCGGAUGCAGAGGAGGCAGGCUUCGGUGGCUCGAUAGCGCCAACGUCCUCAACCUCCAAUGCAUCCCACCACAUGAUGAUGCCUGAAGAGCCUUGGUUUUUUG [A5G G63U] ?
Given back: -0.893

Asked: Give its polymerase ribozyme fitness (log ratio) value. Item: GACCAAUCUGCCCUCAGUGCUCGAGAACAUCUUCGGAUGUAGAGGAGGCAGGCUUCGGUGGCGCGAUAGCGCCAACGUCCUCAACCUCCAAUGCAUCCCACCACAUGAUGAUGCCUGAAGAGCCUUGGUUUUUUG [A18U C40U]
Given back: -3.83

Asked: For the variant GACCAAUCUGCCCUCAGAGCUCGAGAACAUCUUCGGAUGCAGAGGACGCAGGCUUCGGUGGCGCGAUAGCGGCAACGUCCUCAACCUCCAAUGCAUCCCACCACAUGAUGAUACCUGAAGAGCCUAGGUUUUUUG [G47C C72G G113A U126A] , what polymerase ribozyme fitness (log ratio) is on record?
Given back: -5.16

Asked: Would you kindly share the measured polymerase ribozyme fitness (log ratio) for GACCAUUCUGCCCUCAGAGCUCGAGAACAUCUUCGGAUGCAGAGGAGACAGGCUUCGGUGGCGCGAUGGCGCCAACGUCCUCAACCUCCAAUGCAUCCCACCACAUGAUGAUGCCUGAAGAGACUUGGUUUUUUG [A6U G48A A68G C123A] ?
Given back: -2.21

Asked: GET /values?readout=polymerase ribozyme fitness (log ratio)&item= GACCAAUCUGCCCUCAGAGCUCGAGAACAUCUUCGUAUGCAGAGGAGGCAGGCUUCGGUGGCGCGAUAGCGCCAACGUCCUCAACCUCCAAUGCAAACCACCACAUGAUGAUGCCUGAAGAGCCUUAGUUUUUUG [G36U U96A C97A G127A]
Given back: -2.83

Asked: Would you kindly share the measured polymerase ribozyme fitness (log ratio) for GACCAAUCGGCCCUCAGAGCUCGAGAACAUCUUCGGAUGCAGAGGAGGCCGGCUUCGGUGGCGCGAUAGCGCCAACGUCCUCAACCUCCAAUGCAUCCCACCACAUGAUGAUGCCUGAAGAGCCUUGGUUUUUUG [U9G A50C] ?
Given back: -0.315

Asked: Record request: polymerase ribozyme fitness (log ratio) value, item GACCAAUCUGCCCUCAGAGCUCGAGAACAUCUUCGGAUGCAGAGGAGGCAGGCUUCGGUGACGCGAUAGCGCCAACGUCCUCAACCUCCAAUGCAUCCCACCACAUGAUGAUGCCUGAACAGCCUUGGUUUUUUG [G61A G120C]
Given back: 1.14

Asked: // polymerase ribozyme fitness (log ratio) lookup, key: GACCGAUCUGCCCUCAGAGCUCGAGAACAUCUUCGGAUGCAGAGGAGGCAGGCUUCGGUAGCGCGAUAGCGCCAACGUCCUCAACCUCCAAUGCAUCCCACCACAUGAUGAUGCCUAAAGAGCCUUGGUUUUUUC [A5G G60A G117A G135C]
Given back: -0.941

Asked: May I ask what polymerase ribozyme fitness (log ratio) has been recorded for GACCAAUCUGCCCUCAGAGCUCGAGGACAUCUUCGGAUGCAGAGGAGGCAGGCUUCGGUGGCACGAUAGCGCCAACGUCCUCAACCUCCAAUGCAUCCCACCACAUGAUGAUGCCUGAAGAGCGUUGGUUUUUUG [A26G G63A C124G] ?
Given back: -0.0451

Asked: I'd like to know its polymerase ribozyme fitness (log ratio). The variant in question is GACCAAUCUGCCCUUAGAGCUCGAGAACAUCUUCGGAUGCAGCGGAGGCAGGCUUCGGUGGCGCGAUAACGCCAACGUCCUCAACCUCCAAUGCAUCCCACCACAUGAUGAUGCCUGAAGAGUAUUGGUUUUUUG [C15U A43C G69A C123U C124A]
Given back: -5.69

Asked: What does the data say about its polymerase ribozyme fitness (log ratio)? Entry: GACCAAUCUGCUCUCAGCGCUCGAGAACAUCUUCGGAUGCAGAGGAGGCAGUCUUCGGUGGCGCGAUAGCGCCAACGUACUCAACCUCCAAUGCAUCCCACCACAUGAUGAUGCCUGAAGAGCCUUCGUUUUUUG [C12U A18C G52U C79A G127C]
Given back: -2.61

Asked: Entry GACCAAUCUGCCCGCAGAGCUCGGGAACAUCUUCGGAUGCAGAGGAGGCAGGCUUCGGUGACGCGAUAGCGCCAACGCCCUCAACCUCCAAUGCAUCCCACCACAUGAUGAUGCCUGAAGAGCCUUGGUUUUUUG [U14G A24G G61A U78C] : reported polymerase ribozyme fitness (log ratio) = ?
Given back: -4.74

Asked: I am curious: what polymerase ribozyme fitness (log ratio) value has been reported for GACCAAUCUGCCCUAAGAGCUCGAGAACAUCUUCGGAUGCAGAGGAGGCAGGCUUCGGUCGCGCGAUAGCGCCAACGUCCUCAACCUCCAAUGCAUCCCACCACAUGAUGAUGCCCGAAGAGCCUUGGUUUUUUG [C15A G60C U116C] ?
Given back: -3.39

Asked: Return reported polymerase ribozyme fitness (log ratio); argument: GACCAAUCUGCCCUCAGAGCUCGAGAACAUCUACGGAUGCAGAGGAGGCAGGCUUCGGUGGCGCGAUAGCGCCAACGUUCUCAACCUCCAAUGAAUCCCACCAUAUGAUGAUGCCUGAAAAGCCUUGGUUUUUUG [U33A C79U C94A C104U G120A]
Given back: -4.61

Asked: Using the record for GACCAAUCUGCCCUCAGAGCUCGAGAACAUCUUCGGAUGUAGAGGAGGCAGGCUUCGGUGGCGCGAUAGCGCCAACGUCCUCAACCUCCAAUGCAUCCCACCACAUGAUGAUGCCUGAAGUGCCUUGGUUUUUUG [C40U A121U] , report its polymerase ribozyme fitness (log ratio).
Given back: 1.68

Asked: Data request, read-out polymerase ribozyme fitness (log ratio), for GACCAACCUGCCCUCAGAGCUCGAGAACAUAUUCGGAUGCAGAGGAGGCAGGCUUCGGUGGCGCGAUAGCGCCAACGUCCUCAACCUCCAAUGCAUCCCACCACAUGAUGAUGCCUGAGGAGCCUUGGUUUUAUG [U7C C31A A119G U133A]
Given back: -6.12

Asked: Could you share which polymerase ribozyme fitness (log ratio) value was measured for GACCAAUCUGCCUUCAGAGCUCGAGAACAUCUUCGGAUGCAGAGGAGGCAGGCUUCGGUGGCGCGAUAGCGCCAACGUCCUCAACCUCCAAUGCAUCUCACCACAUGAUGAUGCCUGAAGAGCCUUGGUUUUUUG [C13U C98U] ?
Given back: -1.1

Asked: Which polymerase ribozyme fitness (log ratio) is listed for GACCAAUCUGCCCUCAGAGCUCGAGAACAUCUUCGGAUGCAGAGGAAGCAGGCUUAGGUGGCGCGAUAGCGCCAACGUCCUCAACCUCCAAUGCAUCCCACCACAUGAUGAUUACUGAAGGGCCUUGGUUUUUUG [G47A C56A G113U C114A A121G] ?
Given back: -2.45

Asked: Fill in: polymerase ribozyme fitness (log ratio) of GACCAAUCUGCCCUCAGAGCUCGAGAACAUCUUCGGAUGCAGAGUAGGCAGGCUUCGGUGGCGCGAUAGCGCCAACGUCCUCAACCUCCAAUGCAUCCCACCACAUGAUGAUGCCUGAAGAGCCUUGGUUUAUUG [G45U U132A] is ___
Given back: -1.91

Asked: # lookup: polymerase ribozyme fitness (log ratio) of GACCAAUCUGCCGUCAGAGCUCGAGAACAUCCUCGGAUGCAGAGGAGGCAGGCUUCGGUGGCGCGAUAGCGCCAACGCCCUCAACCUCCAAUGCAUCCCACCACAUGAUGAUGCCUGAAGAGCCUUGGUUUUUUG [C13G U32C U78C]
Given back: -2.51
